Target: full-length beta-Catenin (Uniprot ID P35222) (Homo sapiens)
Construct: 10 nM full-length beta-Catenin (Uniprot ID P35222)
Sequence (P35222 whole entry): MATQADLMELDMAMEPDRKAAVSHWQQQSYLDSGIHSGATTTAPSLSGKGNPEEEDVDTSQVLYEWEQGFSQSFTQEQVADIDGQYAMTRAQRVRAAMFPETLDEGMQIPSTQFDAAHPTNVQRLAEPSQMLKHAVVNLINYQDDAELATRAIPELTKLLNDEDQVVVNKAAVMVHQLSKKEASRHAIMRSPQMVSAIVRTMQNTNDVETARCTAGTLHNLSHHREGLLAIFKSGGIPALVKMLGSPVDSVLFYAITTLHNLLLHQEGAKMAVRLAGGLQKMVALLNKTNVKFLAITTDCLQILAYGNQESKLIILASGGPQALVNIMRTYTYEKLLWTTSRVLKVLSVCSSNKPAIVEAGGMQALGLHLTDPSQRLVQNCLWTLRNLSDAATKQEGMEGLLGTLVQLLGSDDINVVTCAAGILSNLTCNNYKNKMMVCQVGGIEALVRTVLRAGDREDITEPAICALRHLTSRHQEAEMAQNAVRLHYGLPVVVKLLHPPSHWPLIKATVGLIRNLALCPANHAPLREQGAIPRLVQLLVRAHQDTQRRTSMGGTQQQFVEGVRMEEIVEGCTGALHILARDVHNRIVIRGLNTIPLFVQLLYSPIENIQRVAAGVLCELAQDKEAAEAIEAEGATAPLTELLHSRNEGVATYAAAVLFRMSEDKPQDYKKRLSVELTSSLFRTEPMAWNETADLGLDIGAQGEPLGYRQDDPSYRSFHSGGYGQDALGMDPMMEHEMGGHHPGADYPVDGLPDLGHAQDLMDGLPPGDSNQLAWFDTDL
Assay: Fluorescence polarization IC50 (beta-catenin / 5FAM-TCF4 10-53 competition)
Type: binding
Details: fluorescence polarization; read-out: beta-Catenin FP IC50
Recorded pIC50, one value per entry.
Please treat pIC50 as minus the base-10 logarithm of the molar concentration.

Consider the following illustrative entries.
[
  {
    "compound": "CC(=O)N1CCC[C@]12CC=CCCCC1(CCCC=CCCCOC(=O)N3CC[C@@](C(=O)N[C@@H](Cc4ccsc4)C(=O)N[C@@H](Cc4csc5ccccc45)C(=O)N[C@@H](CCO)C(N)=O)(C3)NC(=O)[C@H](CC(N)=O)NC(=O)[C@H](Cc3ccccc3)NC(=O)[C@H](C)NC(=O)[C@H](CCCCNC(C)C)NC(=O)[C@H](CCC(N)=O)NC(=O)[C@H](CC(=O)O)NC1=O)NC(=O)[C@H](CC1CCCCC1)NC(=O)[C@H](CC(N)=O)NC2=O (stereo partly drawn) [I-2074]",
    "targetOrSystem": "full-length beta-Catenin (Uniprot ID P35222) (Homo sapiens)",
    "pIC50": 6.10
  },
  {
    "compound": "CC(=O)N1CCC[C@]12CC=CCCCC1(CCCC=CCCCOC(=O)N3CC[C@@](C(=O)N[C@@H](Cc4ccsc4)C(=O)N[C@@H](Cc4csc5ccccc45)C(=O)N[C@@H](Cc4c[nH]c5ccccc45)C(N)=O)(C3)NC(=O)[C@H](CC(N)=O)NC(=O)[C@H](Cc3ccccc3)NC(=O)[C@H](C)NC(=O)[C@H](C)NC(=O)[C@H]([C@@H](C)O)NC(=O)[C@H](CC(N)=O)NC1=O)NC(=O)[C@H](CC(C)(C)C)NC(=O)[C@H](CC(=O)O)NC2=O (stereo partly drawn) [I-2139]",
    "targetOrSystem": "full-length beta-Catenin (Uniprot ID P35222) (Homo sapiens)",
    "pIC50": 6.01
  }
]

IN: Quick one: pIC50 of CC[C@H](C)[C@@H]1NC(=O)[C@H](CC(=O)O)NC(=O)[C@]2(CC=CCCCC3(CCCC=CCCCCCC[C@@](C)(C(=O)N[C@@H](Cc4ccsc4)C(=O)N[C@@H](Cc4csc5ccccc45)C(=O)N[C@@H](Cc4c[nH]cn4)C(N)=O)NC(=O)[C@H](CC(N)=O)NC(=O)[C@H](Cc4ccccc4)NC(=O)[C@H](C)NC(=O)[C@H](C)NC(=O)[C@H](CCC(=O)O)NC(=O)[C@H](CC(=O)O)NC3=O)NC1=O)CCCN2C(C)=O (stereo partly drawn) [I-517] ?
OUT: 7.82

---

Test: CHI Log D procedure
Assay type: physicochemical
Conditions: pH 7.4, CHI Log D
measurementLabel: chromatographic logD
The answer should be written as a number, with no unit following it.

[
  {
    "compound": "CC(=O)N1CCC[C@]12CC=CCCCC1(CCCC=CCCCCCC[C@@](C)(C(=O)N[C@@H](Cc3cccc(F)c3)C(=O)N[C@@H](Cc3c[nH]c4ccccc34)C(=O)N[C@@H](CCC(N)=O)C(N)=O)NC(=O)[C@H](C(C)C)NC(=O)[C@H](Cc3ccccc3)NC(=O)[C@H](C)NC(=O)[C@H](C)NC(=O)[C@H](CC(=O)O)NC(=O)[C@H](CC(=O)O)NC1=O)NC(=O)[C@H](C)NC(=O)[C@H](CC(=O)O)NC2=O (some centres unmarked)",
    "chromatographic logD": 2.06
  }
]

# evaluate next
IN: Form field: reported chromatographic logD of CC(=O)N1CCC[C@]12CC=CCCCC1(CCCC=CCCCCCC[C@@](C)(C(=O)N[C@@H](Cc3ccccc3)C(=O)N[C@@H](Cc3c[nH]c4ccccc34)C(=O)N[C@@H](CCC(N)=O)C(N)=O)NC(=O)[C@H](C(C)C)NC(=O)[C@H](Cc3ccccc3)NC(=O)[C@H](C)NC(=O)[C@H](C)NC(=O)[C@H](Cc3ccc(-c4ccccc4)cc3)NC(=O)[C@H](CC(=O)O)NC1=O)NC(=O)[C@H](C)NC(=O)[C@H](CC(=O)O)NC2=O (some centres unmarked)
OUT: 3.2

---

Target: beta-catenin/TCF4 engagement (Homo sapiens)
Construct: expressed in transfected cells; host or cells: HEK293
Test: Nano-BRET target engagement assay (B-cat-Halo & TCF4-Luc in HEK293 cells)
Format: cell-based
Details: absolute IC50; read-out: NanoBRET Abs IC50
This listing pairs molecules with measured IC50.
Give the number; µM is assumed, so skip it.

[
  {
    "molecule": "CC(=O)N1CCC[C@]12CC=CCCCC1(CCCC=CCCCOC(=O)N3CC[C@@](C(=O)N[C@@H](Cc4ccccc4Cl)C(=O)N[C@@H](Cc4csc5ccccc45)C(=O)N[C@@H](CCC(N)=O)C(N)=O)(C3)NC(=O)[C@H](Cc3ccccc3C(F)(F)F)NC(=O)[C@H](Cc3ccccc3)NC(=O)[C@H](C)NC(=O)[C@H](C)NC(=O)[C@H](CC(=O)O)NC(=O)[C@H](CC(=O)O)NC1=O)NC(=O)[C@H](CC(C)(C)C)NC(=O)[C@H](CC(=O)O)NC2=O (some centres unmarked)",
    "unitAbbrev": "µM",
    "IC50": 7.8
  }
]

Consider the record given below.
IN: Fill in: IC50 of CC(=O)N1CCC[C@]12CC=CCCCC1(CCCC=CCCCOC(=O)N3CC[C@@](C(=O)N[C@@H](Cc4ccccc4Cl)C(=O)N[C@@H](Cc4csc5ccccc45)C(=O)N[C@@H](CCC(N)=O)C(N)=O)(C3)NC(=O)[C@H](CC(C)C)NC(=O)[C@H](Cc3ccccc3)NC(=O)CNC(=O)C(C)(C)NC(=O)[C@H](Cc3cccc(C(=O)O)c3)NC(=O)[C@H](CC(=O)O)NC1=O)NC(=O)[C@H](CC(C)(C)C)NC(=O)[C@H](CC(=O)O)NC2=O (some centres unmarked) is ___
OUT: 12.5

---

Listing of recorded chromatographic logD by entry.
Assay: CHI Log D procedure
Type: physicochemical
Conditions: pH 7.4, CHI Log D
No unit in the answer, only the number.

IN: Report chromatographic logD for CC[C@H](C)[C@@H]1NC(=O)[C@H](CC(=O)O)NC(=O)[C@]2(CC=CCCCC3(CCCC=CCCCCCC[C@@](C)(C(=O)N[C@@H](Cc4ccccc4)C(=O)N[C@@H](Cc4csc5ccccc45)C(=O)N[C@@H](CCC(N)=O)C(N)=O)NC(=O)[C@H](CCC(N)=O)NC(=O)[C@H](Cc4cccs4)NC(=O)[C@H](C)NC(=O)[C@H](C)NC(=O)[C@H](CCC(=O)O)NC(=O)[C@H](CC(=O)O)NC3=O)NC1=O)CCCN2C(C)=O (stereo partly drawn) [I-485] please.
OUT: 2.3

IN: Return reported chromatographic logD; argument: CC(=O)N[C@@H](Cc1ccccc1)C(=O)N[C@@H](CC(=O)O)C(=O)N[C@@H](C)C(=O)N[C@]1(C)CCCN(C)C(=O)OCC=CCCCC[C@@](C)(C(=O)N[C@@H](Cc2ccccc2)C(=O)N[C@@H](Cc2c[nH]c3ccccc23)C(=O)N[C@@H](CCC(N)=O)C(N)=O)NC(=O)[C@H](C(C)C)NC(=O)[C@H](Cc2ccccc2)NC(=O)[C@H](C)NC(=O)[C@H](C)NC(=O)[C@H](CC(=O)O)NC(=O)[C@H](CC(=O)O)NC1=O (single isomer, unassigned) [I-29]
OUT: 1.6

IN: // query chromatographic logD value for entry CC(=O)N1CCC[C@]12CC=CCCCC1(CCCC=CCCCCCC[C@@](C)(C(=O)N[C@@H](Cc3ccccc3)C(=O)N[C@@H](Cc3csc4ccccc34)C(=O)N[C@@H](CCC(N)=O)C(N)=O)NC(=O)[C@H](CCC(N)=O)NC(=O)[C@H](Cc3ccccc3)NC(=O)[C@H](C)NC(=O)[C@H](C)NC(=O)[C@H](Cc3nn[nH]n3)NC(=O)[C@H](CC(=O)O)NC1=O)NC(=O)[C@H](C)NC(=O)[C@H](CC(=O)O)NC2=O (stereo partly drawn) [I-413]
OUT: 2

---

Experiment: Solubility in PBS
Type: physicochemical
Readings of Solubility for the listed compounds
Reply with just the number (in µM).

[
  {
    "compound": "CC(=O)N1CCC[C@]12CC=CCCCC1(CCCC=CCCCOC(=O)N3CC[C@@](C(=O)N[C@@H](Cc4ccccc4Cl)C(=O)N[C@@H](Cc4csc5ccccc45)C(=O)N[C@@H](CCC(N)=O)C(N)=O)(C3)NC(=O)[C@H](CC(N)=O)NC(=O)[C@H](Cc3ccccc3)NC(=O)[C@H](C)NC(=O)[C@H](C)NC(=O)[C@H](CC(=O)O)NC(=O)[C@H](CC(=O)O)NC1=O)NC(=O)[C@H](CC1CCCCC1)NC(=O)[C@H](CC(=O)O)NC2=O (some centres unmarked)",
    "experimentalValue": 50
  }
]

Now for the compound whose Solubility we want.
IN: Look up Solubility for this compound: CC(=O)N1CCC[C@]12CC=CCCCC1(CCCC=CCCCOC(=O)N3CC[C@@](C(=O)N[C@@H](Cc4ccsc4)C(=O)N[C@@H](Cc4csc5ccccc45)C(=O)N[C@H](C(N)=O)[C@@H](C)O)(C3)NC(=O)[C@H](CC(N)=O)NC(=O)[C@H](Cc3ccccc3)NC(=O)[C@H](C)NC(=O)[C@H](C)NC(=O)[C@H](CN(CC(=O)O)CC(F)(F)F)NC(=O)[C@H](CC(=O)O)NC1=O)NC(=O)[C@H](CC(C)(C)C)NC(=O)[C@H](CC(=O)O)NC2=O (some centres unmarked) [I-942]
OUT: 46
